Values were extracted from paper PMC4335062.

systemTested: JUN (Homo sapiens, UniProt P05412)
Sequence (P05412 252-315 limits assumed): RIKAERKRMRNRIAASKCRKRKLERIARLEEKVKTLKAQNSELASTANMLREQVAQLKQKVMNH
protocol: Direct-binding FRET assay
Parameters: made in house
conditionDetails: 23°C; N-terminal rhodamine design; mean or single; read-out: Kd
pKd: −log10 of the molar value. Where no end group is shown, it is not given here.
assayMetric: pKd

> print(dat)
                              sequenceinput                        systemtested  testresult
1  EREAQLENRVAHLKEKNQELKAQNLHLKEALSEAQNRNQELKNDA [XBP1-d1]  JUN (Homo sapiens, UniProt P05412)      < 6.00
2  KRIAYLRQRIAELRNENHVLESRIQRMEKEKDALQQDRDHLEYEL [ATF5-d1]  JUN (Homo sapiens, UniProt P05412)      < 5.30
3  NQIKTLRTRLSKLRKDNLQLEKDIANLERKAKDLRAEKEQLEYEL [ATF4-d1]  JUN (Homo sapiens, UniProt P05412)      < 5.30

---

Each item that follows carries a reported pKd.
systemTested: NFE2L2 (Homo sapiens, UniProt Q16236)
Construct: made in house
Sequence (Q16236 497-560 limits assumed): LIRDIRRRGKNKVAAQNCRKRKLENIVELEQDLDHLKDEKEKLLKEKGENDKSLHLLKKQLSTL
protocol: Direct-binding FRET assay
conditionDetails: 37°C; C-terminal fluorescein design as donor, TAMRA target titrated; read-out: Kd
pKd: −log10 of the molar value. Where no end group is shown, it is not given here.
assayMetric: pKd

> print(dat)
                              sequenceinput  testresult
1  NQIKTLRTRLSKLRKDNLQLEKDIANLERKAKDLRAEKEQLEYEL [ATF4-d1]      < 6.00
2  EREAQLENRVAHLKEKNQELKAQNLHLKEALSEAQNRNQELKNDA [XBP1-d1]      < 6.00

---

# Kd values compiled below
systemTested: NFE2L2 (Homo sapiens)
Construct: made in house
protocol: Direct-binding FRET assay
conditionDetails: 4°C; C-terminal fluorescein design as donor, TAMRA target titrated; read-out: Kd
Where no end group is shown, it is not given here.
assayMetric: Kd

> print(dat)
                              sequenceinput           systemtested  assaymetric  testresult
1  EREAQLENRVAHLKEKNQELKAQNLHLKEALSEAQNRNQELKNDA [XBP1-d1]  NFE2L2 (Homo sapiens)           Kd   > 1000 nM
2  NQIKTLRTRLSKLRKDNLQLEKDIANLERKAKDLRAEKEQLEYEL [ATF4-d1]  NFE2L2 (Homo sapiens)           Kd   > 5000 nM

---

systemTested: DBP (Homo sapiens, UniProt Q10586)
Construct: made in house
Sequence (Q10586 255-318 limits assumed): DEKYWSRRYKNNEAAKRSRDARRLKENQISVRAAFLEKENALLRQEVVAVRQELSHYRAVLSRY
protocol: Direct-binding FRET assay
conditionDetails: Kd, 23°C; N-terminal rhodamine design; mean or single
Where no end group is shown, it is not given here.
assayMetric: Kd

> print(dat)
                              sequenceinput  assaymetric  testresult
1  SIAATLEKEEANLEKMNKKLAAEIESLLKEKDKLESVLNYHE [JUN-d1]           Kd      > 1 µM

---

systemTested: JUNB (Homo sapiens)
Construct: made in house
Sequence (P17275 268-331 limits assumed): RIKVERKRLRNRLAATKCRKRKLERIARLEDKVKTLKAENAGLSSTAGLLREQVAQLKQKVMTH
protocol: Direct-binding FRET assay
conditionDetails: Kd, 37°C; N-terminal rhodamine design; mean or single
pKd: −log10 of the molar value. Where no end group is shown, it is not given here.
assayMetric: pKd

> print(dat)
                              sequenceinput         systemtested  testresult
1  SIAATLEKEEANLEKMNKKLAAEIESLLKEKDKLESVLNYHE [JUN-d1]  JUNB (Homo sapiens)        6.07

---

systemTested: ATF2 (Homo sapiens)
Construct: made in house
Sequence (P15336 352-415 limits assumed): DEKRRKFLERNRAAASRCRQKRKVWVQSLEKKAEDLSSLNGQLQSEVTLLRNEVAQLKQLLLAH
protocol: Direct-binding FRET assay
conditionDetails: 37°C; C-terminal fluorescein design as donor, TAMRA target titrated; read-out: Kd
Where no end group is shown, it is not given here.
Overview of reported Kd across a group of sequences:
assayMetric: Kd

> print(dat)
                              sequenceinput         systemtested  testresult
1  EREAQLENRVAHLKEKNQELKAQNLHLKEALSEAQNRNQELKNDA [XBP1-d1]  ATF2 (Homo sapiens)   > 1000 nM
2  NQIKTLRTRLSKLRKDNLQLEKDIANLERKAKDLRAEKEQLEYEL [ATF4-d1]  ATF2 (Homo sapiens)   > 5000 nM

---

systemTested: NFE2L3 (Homo sapiens)
Construct: made in house
Sequence (Q9Y4A8 578-641 limits assumed): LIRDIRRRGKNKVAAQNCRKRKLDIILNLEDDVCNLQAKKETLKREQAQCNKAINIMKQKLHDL
protocol: Direct-binding FRET assay
conditionDetails: 4°C; C-terminal rhodamine design; repeat 1; read-out: Kd
Where no end group is shown, it is not given here.
assayMetric: Kd

> print(dat)
                              sequenceinput  testresult
1  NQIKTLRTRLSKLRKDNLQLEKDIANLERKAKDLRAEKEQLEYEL [ATF4-d1]      > 5 µM

---

systemTested: NFE2L1 (Homo sapiens, UniProt Q14494)
Sequence (Q14494 654-717 limits assumed): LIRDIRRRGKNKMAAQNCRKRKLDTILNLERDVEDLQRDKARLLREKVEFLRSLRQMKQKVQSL
protocol: Direct-binding FRET assay
Set-up: made in house
conditionDetails: 4°C; N-terminal rhodamine design; repeat 1; read-out: Kd
Where no end group is shown, it is not given here.
assayMetric: Kd

> print(dat)
                              sequenceinput  testresult
1  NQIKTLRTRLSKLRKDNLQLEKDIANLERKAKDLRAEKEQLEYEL [ATF4-d1]      > 1 µM

---

systemTested: BACH2 (Homo sapiens, UniProt Q9BYV9)
Sequence (Q9BYV9 646-709 limits assumed): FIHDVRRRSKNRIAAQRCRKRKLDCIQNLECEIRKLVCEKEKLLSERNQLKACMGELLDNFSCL
protocol: Direct-binding FRET assay
Set-up: made in house
conditionDetails: 4°C; C-terminal rhodamine design; mean or single; read-out: Kd
Where no end group is shown, it is not given here.
assayMetric: Kd

> print(dat)
                              sequenceinput  assaymetric  testresult
1  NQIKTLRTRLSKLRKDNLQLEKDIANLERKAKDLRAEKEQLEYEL [ATF4-d1]           Kd      > 5 µM
2  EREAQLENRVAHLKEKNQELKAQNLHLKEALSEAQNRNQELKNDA [XBP1-d1]           Kd      > 1 µM
3  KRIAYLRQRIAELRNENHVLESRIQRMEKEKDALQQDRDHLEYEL [ATF5-d1]           Kd      > 5 µM

---

systemTested: CREB1 (Homo sapiens)
Construct: made in house
Sequence (P16220 269-327 limits assumed): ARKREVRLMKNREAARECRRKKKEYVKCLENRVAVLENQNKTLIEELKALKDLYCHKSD
protocol: Direct-binding FRET assay
conditionDetails: 4°C; N-terminal rhodamine design; mean or single
pKd: −log10 of the molar value. Where no end group is shown, it is not given here.
assayMetric: pKd

> print(dat)
                              sequenceinput          systemtested  testresult
1  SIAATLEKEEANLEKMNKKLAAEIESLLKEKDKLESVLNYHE [JUN-d1]  CREB1 (Homo sapiens)      < 6.00

---

Each item that follows carries a reported pKd.
systemTested: CREB1 (Homo sapiens)
Construct: made in house
Sequence (P16220 269-327 limits assumed): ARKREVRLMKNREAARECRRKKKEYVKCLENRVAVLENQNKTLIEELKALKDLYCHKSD
protocol: Direct-binding FRET assay
conditionDetails: 37°C; N-terminal rhodamine design; mean or single; read-out: Kd
pKd: −log10 of the molar value. Where no end group is shown, it is not given here.
assayMetric: pKd

> print(dat)
                              sequenceinput  assaymetric  testresult
1  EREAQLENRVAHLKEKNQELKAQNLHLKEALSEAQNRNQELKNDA [XBP1-d1]          pKd      < 6.00
2  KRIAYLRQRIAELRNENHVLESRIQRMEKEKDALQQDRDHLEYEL [ATF5-d1]          pKd      < 6.00
3  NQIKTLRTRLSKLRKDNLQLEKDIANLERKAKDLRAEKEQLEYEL [ATF4-d1]          pKd      < 6.00

---

systemTested: BATF3 (Homo sapiens, UniProt Q9NR55)
Construct: made in house
Sequence (Q9NR55 35-98 limits assumed): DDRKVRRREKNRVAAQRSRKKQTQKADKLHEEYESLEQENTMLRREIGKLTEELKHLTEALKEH
protocol: Direct-binding FRET assay
conditionDetails: Kd, 4°C; N-terminal rhodamine design; mean or single
Where no end group is shown, it is not given here.
assayMetric: Kd

> print(dat)
                              sequenceinput  testresult
1  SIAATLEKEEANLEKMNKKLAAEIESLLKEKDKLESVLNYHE [JUN-d1]   > 1000 nM
